Structures can show the parent of a compound that is named as a salt.
Could you please report measured melting point for the items listed next?

In: Let me know recorded melting point for O=c1[nH]c(=O)c2cc3ccc(Oc4ccccc4)cc3nc2[nH]1 , thanks.
Out: 334 to 336 °C (dec.)

In: Let me know recorded melting point for O=C1c2cc3cc4c(cc3nc2C(=O)N1Cc1[nH]c(=O)[nH]c(=O)c1I)OCO4 [Compound 23c] , thanks.
Out: 365 to 367 °C (dec.)

In: Let me know recorded melting point for CN(C)c1c2cc3c(cc2nc2[nH]c(=O)[nH]c(=O)c12)OCO3 , thanks.
Out: 348 °C

In: Let me know recorded melting point for O=C1c2cc3c(=O)[nH]c(=O)[nH]c3nc2C(=O)N1CCc1ccccc1 [Compound 28e] , thanks.
Out: 359 to 361 °C

In: Let me know recorded melting point for O=C1c2cc3cc4c(cc3nc2C(=O)N1Cc1[nH]c(=O)[nH]c(=O)c1Br)OCO4 [Compound 23b] , thanks.
Out: 370 to 372 °C (dec.)

In: Let me know recorded melting point for O=c1[nH]c(=O)c2cc3ccc(Cc4ccccc4)cc3nc2[nH]1 , thanks.
Out: 297 to 299 °C (dec.)

In: Let me know recorded melting point for O=c1[nH]c(=O)c2cc3ccc4ccccc4c3nc2[nH]1 , thanks.
Out: 326 to 328 °C

In: Let me know recorded melting point for O=c1[nH]c(=O)c2cc3cc(Cl)c(Cl)cc3nc2[nH]1 , thanks.
Out: > 360 °C

In: Let me know recorded melting point for O=c1[nH]c(=O)c2cc3ccc4cc5ccccc5cc4c3nc2[nH]1 , thanks.
Out: > 360 °C

In: Let me know recorded melting point for O=C1c2cc3cc4c(cc3nc2C(=O)N1Cc1ccccc1)OCO4 , thanks.
Out: 191 to 193 °C

In: Let me know recorded melting point for CN(C)CCCN1C(=O)c2cc3c(=O)[nH]c(=O)[nH]c3nc2C1=O (as salt: hydrochloride) [Compound 28h] , thanks.
Out: 309 to 311 °C

In: Let me know recorded melting point for O=C(NCc1cc(=O)[nH]c(=O)[nH]1)c1cc2c(=O)[nH]c(=O)[nH]c2nc1C(=O)NCc1cc(=O)[nH]c(=O)[nH]1 , thanks.
Out: 259 to 261 °C (dec.)

In: Let me know recorded melting point for O=C1c2cc3cc4c(cc3nc2C(=O)N1Cc1cc(=O)[nH]c(=O)[nH]1)OCO4 , thanks.
Out: 407 to 409 °C (dec.)

In: Let me know recorded melting point for O=C1c2cc3cc4c(cc3nc2C(=O)N1Cc1[nH]c(=O)[nH]c(=O)c1Cl)OCO4 [Compound 23a] , thanks.
Out: 352 to 354 °C (dec.)

In: Let me know recorded melting point for CCC(CCCn1c(=O)c(Br)cn(C(CC)CCCN2C(=O)c3cc4cc5c(cc4nc3C2=O)OCO5)c1=O)n1cc(Br)c(=O)[nH]c1=O (stereo not shown) , thanks.
Out: 144 to 148 °C

In: Let me know recorded melting point for O=C1c2cc3cc4c(cc3nc2C(=O)N1CCCCCCn1cc(Br)c(=O)[nH]c1=O)OCO4 [Compound 16b] , thanks.
Out: 282 to 283 °C
